Test system: gram negative bacteria
Protocol: In vitro anti-bacterial activity assay (broth dilution MIC), gram negative bacteria
Format: cell-based, E. coli
Settings: Escherichia coli, ATCC25922, 18 h, E. coli ATCC 25922; read-out: Median MIC's G− E. coli ATCC 25922
Reported Property: MIC (µg/mL)
Numbers only, in µg/mL.

Worked examples follow.
CN(C)[C@@H]1C(O)=C(C(N)=O)C(=O)[C@@]2(O)C(O)=C3C(=O)c4c(O)ccc(-c5cccc(C(=O)NCCO)c5)c4C[C@H]3C[C@@H]12 = 64
CN(C)CCN(C)Cc1cccc(-c2ccc(O)c3c2C[C@H]2C[C@H]4[C@H](N(C)C)C(O)=C(C(N)=O)C(=O)[C@@]4(O)C(O)=C2C3=O)c1 = 2
CN(C)CCCCNCc1cccc(-c2ccc(O)c3c2C[C@H]2C[C@H]4[C@H](N(C)C)C(O)=C(C(N)=O)C(=O)[C@@]4(O)C(O)=C2C3=O)c1 = 64
COCCNCC(=O)c1ccc(O)c2c1C[C@H]1C[C@H]3[C@H](N(C)C)C(O)=C(C(N)=O)C(=O)[C@@]3(O)C(O)=C1C2=O = 32
COC(C)CNCC(=O)c1ccc(O)c2c1C[C@H]1C[C@H]3[C@H](N(C)C)C(O)=C(C(N)=O)C(=O)[C@@]3(O)C(O)=C1C2=O (stereo partly drawn) = 32

# MIC measured on gram negative bacteria for item CN(C)c1cc(-c2cccc(C(N)=O)c2)c(O)c2c1C[C@H]1C[C@H]3[C@H](N(C)C)C(O)=C(C(N)=O)C(=O)[C@@]3(O)C(O)=C1C2=O = 64

* * *

System: gram negative bacteria
Protocol: In vitro anti-bacterial activity assay (broth dilution MIC), gram negative bacteria
Assay type: cell-based, E. coli
Settings: Escherichia coli, 18 h, E. coli MG 1655; read-out: Median MIC's G− E. coli MG 1655
For each record, write down the corresponding MIC.
Give bare numbers, in µg/mL.

Worked examples follow.
CN(C)[C@@H]1C(O)=C(C(N)=O)C(=O)[C@@]2(O)C(O)=C3C(=O)c4c(O)ccc(-c5cccc(C(=O)NCCO)c5)c4C[C@H]3C[C@@H]12 = 64
CCOC(=O)N1CCN(CC(=O)c2ccc(O)c3c2C[C@H]2C[C@H]4[C@H](N(C)C)C(O)=C(C(N)=O)C(=O)[C@@]4(O)C(O)=C2C3=O)CC1 = 8

Could you now consider this next compound?
Memo: CN(CCC#N)Cc1cccc(-c2ccc(O)c3c2C[C@H]2C[C@H]4[C@H](N(C)C)C(O)=C(C(N)=O)C(=O)[C@@]4(O)C(O)=C2C3=O)c1 , reported MIC: 16

* * *

Tested on: gram positive bacteria
Protocol: In vitro anti-bacterial activity assay (broth dilution MIC), gram positive bacteria
Type: cell-based, S. aureus
Settings: Staphylococcus aureus, 18 h, S. aureus MRSA5; read-out: Median MIC's G+ S. aureus MRSA5
Reported Property: MIC (µg/mL)
One number for each entry, in µg/mL.

Worked examples follow.
CN(C)[C@@H]1C(O)=C(C(N)=O)C(=O)[C@@]2(O)C(O)=C3C(=O)c4c(O)ccc(-c5cccc(CCCN6CCCCC6)c5)c4C[C@H]3C[C@@H]12 = 2
COCCNCc1ccc(-c2ccc(O)c3c2C[C@H]2C[C@H]4[C@H](N(C)C)C(O)=C(C(N)=O)C(=O)[C@@]4(O)C(O)=C2C3=O)cc1 = 1

Could you now consider this next compound?
Memo: CN(C)CCCCNCc1cccc(-c2ccc(O)c3c2C[C@H]2C[C@H]4[C@H](N(C)C)C(O)=C(C(N)=O)C(=O)[C@@]4(O)C(O)=C2C3=O)c1 , reported MIC: 32

* * *

Test system: gram negative bacteria
Protocol: In vitro anti-bacterial activity assay (broth dilution MIC), gram negative bacteria
Type: cell-based, E. coli
Settings: Escherichia coli, ATCC25922, 18 h, E. coli ATCC 25922; read-out: Median MIC's G− E. coli ATCC 25922
Description: Bacterial infections may be caused by a wide variety of gram positive and gram negative bacteria. Some of the compounds of the invention are useful as antibiotics against organisms which are resistant and/or sensitive to other tetracycline compounds. […] 50 μl of the cell suspensions were added to each well of microtiter plates. […] The plates were read with a microplate reader and were visually inspected when necessary. […]
Reported Property: MIC
A complete answer gives the number and then names the unit.

Quick one: give me MIC for each item below, same order please.
1. CC(=O)NCCNC(=O)c1cccc(-c2ccc(O)c3c2C[C@H]2C[C@H]4[C@H](N(C)C)C(O)=C(C(N)=O)C(=O)[C@@]4(O)C(O)=C2C3=O)c1
2. CC(=O)N1CCN(CC(=O)c2ccc(O)c3c2C[C@H]2C[C@H]4[C@H](N(C)C)C(O)=C(C(N)=O)C(=O)[C@@]4(O)C(O)=C2C3=O)CC1
3. CN(C)CC(=O)Nc1cccc(-c2ccc(O)c3c2C[C@H]2C[C@H]4[C@H](N(C)C)C(O)=C(C(N)=O)C(=O)[C@@]4(O)C(O)=C2C3=O)c1
4. CN(C)CCNC(=O)c1cccc(-c2ccc(O)c3c2C[C@H]2C[C@H]4[C@@H](N(C)C)C(O)=C(C(N)=O)C(=O)[C@@]4(O)C(O)=C2C3=O)c1
5. CN(C)[C@@H]1C(O)=C(C(N)=O)C(=O)[C@@]2(O)C(O)=C3C(=O)c4c(O)ccc(C(=O)CNCc5ccco5)c4C[C@H]3C[C@@H]12
6. CN(C)CCCN(C)Cc1cccc(-c2ccc(O)c3c2C[C@H]2C[C@H]4[C@H](N(C)C)C(O)=C(C(N)=O)C(=O)[C@@]4(O)C(O)=C2C3=O)c1

Ans:
1. 64 µg/mL
2. 64 µg/mL
3. 1 µg/mL
4. 64 µg/mL
5. 32 µg/mL
6. 8 µg/mL

* * *

For each record, write down the corresponding MIC.
Test system: gram negative bacteria
Protocol: In vitro anti-bacterial activity assay (broth dilution MIC), gram negative bacteria
Format: cell-based, E. coli
Settings: Escherichia coli, ATCC25922, 18 h, E. coli ATCC 25922; read-out: Median MIC's G− E. coli ATCC 25922
A complete answer gives the number and then names the unit.

Worked examples follow.
COCCNCc1ccc(-c2ccc(O)c3c2C[C@H]2C[C@H]4[C@H](N(C)C)C(O)=C(C(N)=O)C(=O)[C@@]4(O)C(O)=C2C3=O)cc1 = 0.25 µg/mL
CN(C)[C@@H]1C(O)=C(C(N)=O)C(=O)[C@@]2(O)C(O)=C3C(=O)c4c(O)ccc(C(=O)CN5CCN(C6CCCCC6)CC5)c4C[C@H]3C[C@@H]12 = 1 µg/mL
CN(C)[C@@H]1C(O)=C(C(N)=O)C(=O)[C@@]2(O)C(O)=C3C(=O)c4c(O)ccc(-c5cccc(C(=O)NCc6ccco6)c5)c4C[C@H]3C[C@@H]12 = 64 µg/mL
CN(C)CCCCN(C)Cc1cccc(-c2ccc(O)c3c2C[C@H]2C[C@H]4[C@H](N(C)C)C(O)=C(C(N)=O)C(=O)[C@@]4(O)C(O)=C2C3=O)c1 = 2 µg/mL

Memo: CN(C)[C@@H]1C(O)=C(C(N)=O)C(=O)[C@@]2(O)C(O)=C3C(=O)c4c(O)ccc(-c5ccc(CNCc6cccnc6)o5)c4C[C@H]3C[C@@H]12 , reported MIC: 1 µg/mL

* * *

For each record, write down the corresponding Photo Toxicity UV Tox50.
System: 3T3 fibroblast cells
Protocol: In vitro phototoxicity assay (neutral red; UV light-treated vs dark control plates)
Type: cell-based
Settings: UV light 50 minutes

Worked examples follow.
CN(C)CCCNC(=O)c1cccc(-c2ccc(O)c3c2C[C@H]2C[C@H]4[C@H](N(C)C)C(O)=C(C(N)=O)C(=O)[C@@]4(O)C(O)=C2C3=O)c1 [Q] = >137.36 µM
COCCCOCCN(C)Cc1cccc(-c2ccc(O)c3c2C[C@H]2C[C@H]4[C@H](N(C)C)C(O)=C(C(N)=O)C(=O)[C@@]4(O)C(O)=C2C3=O)c1 = >200 µM

Quick one: give me Photo Toxicity UV Tox50 for each item below, same order please.
1. CN(C)CCNC(=O)c1cccc(-c2ccc(O)c3c2C[C@H]2C[C@H]4CC(O)=C(C(N)=O)C(=O)[C@@]4(O)C(O)=C2C3=O)c1
2. CCCCNC(=O)c1cccc(-c2ccc(O)c3c2C[C@H]2C[C@H]4[C@H](N(C)C)C(O)=C(C(N)=O)C(=O)[C@@]4(O)C(O)=C2C3=O)c1
3. CN(C)CC(=O)Nc1cccc(-c2ccc(O)c3c2C[C@H]2C[C@H]4[C@H](N(C)C)C(O)=C(C(N)=O)C(=O)[C@@]4(O)C(O)=C2C3=O)c1
4. CN(C)Cc1ccc(-c2ccc(O)c3c2C[C@H]2C[C@H]4[C@H](N(C)C)C(O)=C(C(N)=O)C(=O)[C@@]4(O)C(O)=C2C3=O)[nH]1

Ans:
>158.85 µM
>151.73 µM
>128.09 µM
>147.66 µM

* * *

For each record, write down the corresponding MIC.
System: gram negative bacteria
Protocol: In vitro anti-bacterial activity assay (broth dilution MIC), gram negative bacteria
Assay type: cell-based, E. coli
Settings: Escherichia coli, ATCC25922, 18 h, E. coli ATCC 25922; read-out: Median MIC's G− E. coli ATCC 25922
Answers are plain numbers, in µg/mL.

Worked examples follow.
CN(C)CCc1ccc(O)c2c1C[C@H]1C[C@H]3[C@H](N(C)C)C(O)=C(C(N)=O)C(=O)[C@@]3(O)C(O)=C1C2=O = 4
CNCCNC(=O)c1cccc(-c2ccc(O)c3c2C[C@H]2C[C@H]4[C@H](N(C)C)C(O)=C(C(N)=O)C(=O)[C@@]4(O)C(O)=C2C3=O)c1 = 64
CC(C)N(CCNC(=O)c1cccc(-c2ccc(O)c3c2C[C@H]2C[C@H]4[C@H](N(C)C)C(O)=C(C(N)=O)C(=O)[C@@]4(O)C(O)=C2C3=O)c1)C(C)C = 4

Quick one: give me MIC for each item below, same order please.
1. CN(CCOC(C)(C)C)Cc1cccc(-c2ccc(O)c3c2C[C@H]2C[C@H]4[C@H](N(C)C)C(O)=C(C(N)=O)C(=O)[C@@]4(O)C(O)=C2C3=O)c1
2. COCCN(C)CC(=O)c1ccc(O)c2c1C[C@H]1C[C@H]3[C@H](N(C)C)C(O)=C(C(N)=O)C(=O)[C@@]3(O)C(O)=C1C2=O
3. COC(=O)C1CCN(Cc2ccc(O)c3c2C[C@H]2C[C@H]4[C@H](N(C)C)C(O)=C(C(N)=O)C(=O)[C@@]4(O)C(O)=C2C3=O)CC1

Ans:
1. 4
2. 2
3. 0.25

The reported measurements were obtained from patent US20100022483A1.
